# Test system: PPARg:RXRa 270nM:90nM, anti-RXR (NR concentration 270 nM, RXRa partner concentration 90 nM)
# Assay text: PBM binding z-score (relative to random genomic background probes); higher = stronger binding; sequences stand for … in GC…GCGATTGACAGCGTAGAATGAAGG
Rule: MET for PBM binding z-score not less than 4, NOT MET for anything less.

Inquiry: Record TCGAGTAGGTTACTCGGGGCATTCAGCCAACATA ; criterion: PBM binding z-score no lower than 4. Met?
Reply text: NOT MET

Inquiry: I'd appreciate it if you could say whether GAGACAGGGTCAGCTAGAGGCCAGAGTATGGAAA has PBM binding z-score at least equal to 4.
Reply text: NOT MET

Inquiry: Say whether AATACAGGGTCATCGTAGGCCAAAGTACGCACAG shows PBM binding z-score of 4 or more.
Reply text: MET

Inquiry: Check the entry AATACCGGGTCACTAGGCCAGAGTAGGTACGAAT : does PBM binding z-score equal or exceed 4?
Reply text: MET

Inquiry: Exam item: decide whether the reported PBM binding z-score for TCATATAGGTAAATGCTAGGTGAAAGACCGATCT is at least 4.
Reply text: NOT MET

Inquiry: PBM binding z-score >= 4 for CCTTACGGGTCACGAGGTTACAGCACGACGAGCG ?
Reply text: MET

Inquiry: Tell me whether PBM binding z-score is at least 4 here: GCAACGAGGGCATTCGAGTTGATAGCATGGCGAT
Reply text: NOT MET

Inquiry: Confirm if PBM binding z-score reported for the sequence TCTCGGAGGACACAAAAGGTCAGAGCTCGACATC is 4 or above.
Reply text: NOT MET

Inquiry: Is it the case that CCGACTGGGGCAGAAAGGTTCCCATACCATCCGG has PBM binding z-score reaching or exceeding 4?
Reply text: NOT MET

Inquiry: Does PBM binding z-score meet or surpass 4 for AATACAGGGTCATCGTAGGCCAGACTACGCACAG ?
Reply text: MET

Inquiry: Answer whether PBM binding z-score of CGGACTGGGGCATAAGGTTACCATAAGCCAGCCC is greater than or equal to 4.
Reply text: MET

Inquiry: Tell me whether PBM binding z-score is at least 4 here: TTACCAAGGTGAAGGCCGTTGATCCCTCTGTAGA
Reply text: NOT MET

Inquiry: Does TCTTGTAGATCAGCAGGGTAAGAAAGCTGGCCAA have a reported PBM binding z-score of at least 4?
Reply text: NOT MET

Inquiry: Please indicate if the recorded PBM binding z-score for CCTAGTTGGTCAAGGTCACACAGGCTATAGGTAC meets or exceeds 4.
Reply text: NOT MET

Inquiry: # bool: PBM binding z-score of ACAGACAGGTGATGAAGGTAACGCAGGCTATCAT >= 4
Reply text: NOT MET

Inquiry: Determine whether measured PBM binding z-score meets or exceeds 4 for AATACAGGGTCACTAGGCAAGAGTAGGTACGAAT
Reply text: MET

Inquiry: Please tell me: is the sequence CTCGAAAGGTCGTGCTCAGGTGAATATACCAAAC at or over 4 in terms of PBM binding z-score?
Reply text: NOT MET

Inquiry: Quick check: does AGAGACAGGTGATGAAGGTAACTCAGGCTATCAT have PBM binding z-score greater than or equal to 4?
Reply text: NOT MET

Inquiry: Does PBM binding z-score meet or surpass 4 for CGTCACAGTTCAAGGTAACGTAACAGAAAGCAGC ?
Reply text: NOT MET

Inquiry: Is PBM binding z-score for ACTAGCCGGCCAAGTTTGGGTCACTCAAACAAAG at or above 4?
Reply text: NOT MET

Inquiry: Could you tell me if the measured PBM binding z-score of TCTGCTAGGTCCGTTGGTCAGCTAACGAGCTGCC reaches 4 or more?
Reply text: NOT MET

Inquiry: Could you verify whether the entry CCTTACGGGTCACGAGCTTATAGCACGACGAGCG shows PBM binding z-score of no less than 4?
Reply text: MET

Inquiry: In plain terms: is recorded PBM binding z-score at least 4 for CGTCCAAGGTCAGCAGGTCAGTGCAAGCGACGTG ?
Reply text: MET

Inquiry: Say whether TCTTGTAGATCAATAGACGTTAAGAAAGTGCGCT shows PBM binding z-score of 4 or more.
Reply text: NOT MET

Inquiry: # bool: PBM binding z-score of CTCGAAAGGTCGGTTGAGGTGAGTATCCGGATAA >= 4
Reply text: NOT MET
